Quick reference for log10 of IC50 among some compounds
- target_entity: Amine oxidase [flavin-containing] A (Homo sapiens, UniProt P21397)
- Sequence (P21397 whole entry): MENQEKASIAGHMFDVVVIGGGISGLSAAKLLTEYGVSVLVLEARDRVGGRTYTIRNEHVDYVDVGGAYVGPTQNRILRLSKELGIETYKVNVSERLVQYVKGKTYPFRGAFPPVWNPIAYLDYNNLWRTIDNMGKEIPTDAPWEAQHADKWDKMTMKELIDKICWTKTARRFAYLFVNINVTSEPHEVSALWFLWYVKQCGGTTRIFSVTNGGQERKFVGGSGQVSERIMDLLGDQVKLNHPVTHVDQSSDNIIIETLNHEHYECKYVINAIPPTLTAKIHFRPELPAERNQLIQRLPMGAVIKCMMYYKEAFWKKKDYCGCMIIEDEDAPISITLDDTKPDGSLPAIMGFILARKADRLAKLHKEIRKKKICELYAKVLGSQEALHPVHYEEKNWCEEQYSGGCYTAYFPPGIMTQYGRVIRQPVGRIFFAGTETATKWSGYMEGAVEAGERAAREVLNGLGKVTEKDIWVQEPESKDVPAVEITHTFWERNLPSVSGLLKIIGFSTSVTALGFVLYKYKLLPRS
- assay_details: Inhibition of recombinant human MAO-A expressed in baculovirus infected BTI insect cells using tyramine as substrate pretreated for 30 mins followed by substrate addition incubated for 30 mins measured at 5 mins interval by horse-radish peroxidase/amplex red-based fluorometric method
Would you kindly interpret these values as log10 of IC50 expressed in µM?

// worked examples, log10 of IC50 included
{"given_smiles": "C#CCn1c(-c2ccc(C(=O)N/N=C/c3ccc(F)cc3)cc2)nc2ccccc21", "target_entity": "Amine oxidase [flavin-containing] A (Homo sapiens, UniProt P21397)", "measured_parameter": "log10 of IC50", "test_result": -0.07}
{"given_smiles": "C#CCn1c(-c2ccc(C(=O)N/N=C/c3cccc(OC)c3OC)cc2)nc2ccccc21", "target_entity": "Amine oxidase [flavin-containing] A (Homo sapiens, UniProt P21397)", "measured_parameter": "log10 of IC50", "test_result": 1.73}
{"given_smiles": "C#CCn1c(-c2ccc(C(=O)N/N=C/c3ccc(O)cc3)cc2)nc2ccccc21", "target_entity": "Amine oxidase [flavin-containing] A (Homo sapiens, UniProt P21397)", "measured_parameter": "log10 of IC50", "test_result": 0.45}
{"given_smiles": "C#CCn1c(-c2ccc(C(=O)N/N=C/c3cccnc3)cc2)nc2ccccc21", "target_entity": "Amine oxidase [flavin-containing] A (Homo sapiens, UniProt P21397)", "measured_parameter": "log10 of IC50", "test_result": 0.98}
{"given_smiles": "C#CCn1c(-c2ccc(C(=O)N/N=C/c3cc(O)cc(O)c3)cc2)nc2ccccc21", "target_entity": "Amine oxidase [flavin-containing] A (Homo sapiens, UniProt P21397)", "measured_parameter": "log10 of IC50", "test_result": 1.29}

[in] Form field - read-out: log10 of IC50; system: Amine oxidase [flavin-containing] A (Homo sapiens, UniProt P21397); submitted item: C#CCn1c(-c2ccc(C(=O)N/N=C/c3ccc(OC)cc3)cc2)nc2ccccc21
[out] 1.64

[in] Similarly, C#CCn1c(-c2ccc(C(=O)N/N=C/c3ccc([N+](=O)[O-])s3)cc2)nc2ccccc21 ?
[out] 1.43

----------
Quick reference for IC50 among some compounds
- target_entity: Amine oxidase [flavin-containing] B (Homo sapiens)
- Sequence (P27338 whole entry): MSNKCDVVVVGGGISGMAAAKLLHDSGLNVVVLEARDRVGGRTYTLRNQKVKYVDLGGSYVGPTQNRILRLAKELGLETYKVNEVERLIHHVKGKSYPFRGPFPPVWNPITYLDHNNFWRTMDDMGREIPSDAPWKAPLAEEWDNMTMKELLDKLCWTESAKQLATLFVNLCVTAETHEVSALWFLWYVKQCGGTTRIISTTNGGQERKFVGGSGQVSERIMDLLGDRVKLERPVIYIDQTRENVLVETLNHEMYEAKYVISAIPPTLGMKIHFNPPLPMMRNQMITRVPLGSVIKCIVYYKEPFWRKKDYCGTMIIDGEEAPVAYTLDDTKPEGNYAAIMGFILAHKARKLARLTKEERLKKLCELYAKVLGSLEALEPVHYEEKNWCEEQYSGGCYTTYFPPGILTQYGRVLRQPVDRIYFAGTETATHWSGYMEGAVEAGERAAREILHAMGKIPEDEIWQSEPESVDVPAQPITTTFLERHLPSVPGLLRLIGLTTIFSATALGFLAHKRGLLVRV
- assay_details: Inhibition of recombinant human MAO-B expressed in baculovirus infected BTI insect cells using tyramine as substrate pretreated for 30 mins followed by substrate addition incubated for 30 mins measured at 5 mins interval by horse-radish peroxidase/amplex red-based fluorometric method
Could you give me the number in µM? Just the number is fine.

// worked examples, IC50 included
{"given_smiles": "C#CCn1c(-c2ccc(C(=O)N/N=C/c3ccc(F)cc3)cc2)nc2ccccc21", "IC50 (µM)": 0.136}
{"given_smiles": "C#CCn1c(-c2ccc(C(=O)N/N=C/c3ccc(Cl)cc3)cc2)nc2ccccc21", "IC50 (µM)": 10.2}
{"given_smiles": "C#CCn1c(-c2ccc(C(=O)N/N=C/c3cccc(OC)c3)cc2)nc2ccccc21", "IC50 (µM)": 12.6}

The record that follows has no IC50 shown yet.
[in] Field request: IC50 | item: C#CCn1c(-c2ccc(C(=O)N/N=C/c3ccc([N+](=O)[O-])s3)cc2)nc2ccccc21
[out] 0.881
